Settings: mouse, in vivo, po, 100 mg/kg, 60 min
metricName: Plasma level of non-ester compound (µg/mL)

CC(OC(=O)OCC(C)(C)C)OC(=O)C1=C(CSc2nnnn2CCN(C)C)CS[C@@H]2[C@H](NC(=O)Cc3csc(N)n3)C(=O)N12 (stereo partly drawn) :: 7.23
CCC(CC)COC(=O)OC(C)OC(=O)C1=C(CSc2nnnn2CCN(C)C)CS[C@@H]2[C@H](NC(=O)Cc3csc(N)n3)C(=O)N12 (stereo partly drawn) :: 8.73
CC(C)CCOC(=O)OC(C)OC(=O)C1=C(CSc2nnnn2CCN(C)C)CS[C@@H]2[C@H](NC(=O)Cc3csc(N)n3)C(=O)N12 (stereo partly drawn) :: 9.66

1: CCCC(C)COC(=O)OC(C)OC(=O)C1=C(CSc2nnnn2CCN(C)C)CS[C@@H]2[C@H](NC(=O)Cc3csc(N)n3)C(=O)N12 (stereo partly drawn)
2: CCOC(=O)OC(C)OC(=O)C1=C(CSc2nnnn2CCN(C)C)CS[C@@H]2[C@H](NC(=O)Cc3csc(N)n3)C(=O)N12 (stereo partly drawn) [Compound A, reference compound]
3: CCCC(C)OC(=O)OC(C)OC(=O)C1=C(CSc2nnnn2CCN(C)C)CS[C@@H]2[C@H](NC(=O)Cc3csc(N)n3)C(=O)N12 (stereo partly drawn)
Problem: Sort the compounds on Plasma level of non-ester compound; start with the lowest figure. Lab note: final answer is the ordered label list.
Solution: 2, 1, 3
